system: FaDu; experiment: mitochondrial oxygen consumption rate normalised to cell number, Z score vs plate DMSO wells; higher = higher oxygen consumption (negative = OCR reduction); details: 10 µM; treatment time 24 h; assay medium: 5 mM glucose, 5 mM pyruvate, 4 mM glutamine;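 further: compound exposure in DMEM (4 mM L-glutamine, 5 mM glucose), antimycin A injected at 2 µM after the basal reading and its residual OCR subtracted from basal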
Class membership depends on mitochondrial oxygen consumption rate normalised alone; the intervals are 0 (below -5), 1 (-5 to below -1), 2 (-1 or more)

{"columns": ["compound", "discrete.label"],
 "data": [
  ["Cc1ccc2c(Br)cc(Br)c(OC(=O)c3ccccc3)c2n1", 1],
  ["CC(C)NCC(O)COc1ccc(CC(N)=O)cc1 (stereo unspecified)", 2],
  ["COc1cc(NS(C)(=O)=O)ccc1Nc1c2ccccc2nc2ccccc12", 0],
  ["CC[n+]1c(-c2ccccc2)c2cc(N)ccc2c2ccc(N)cc21", 0],
  ["CC(=O)O[C@H]1C[C@@]2(C)[C@@H](C[C@@H](O)[C@H]3[C@@]4(C)CC[C@@H](O)[C@@H](C)[C@@H]4CC[C@@]32C)/C1=C(\\CCC=C(C)C)C(=O)O", 2],
  ["COc1c2occc2cc2ccc(=O)oc12", 1],
  ["Cc1cc(C(C)(C)CC(C)(C)C)ccc1OCCOCC[N+](C)(C)Cc1ccccc1", 0],
  ["CCN(CC)C(=O)c1cccnc1", 1],
  ["Nc1ncn([C@@H]2O[C@H](CO)[C@@H](O)[C@H]2O)c(=O)n1", 1],
  ["CCN(CC)CCOC(=O)C(c1ccccc1)C1CCCCC1 (stereo unspecified)", 2],
  ["C[n+]1c2cc(N)ccc2cc2ccc(N)cc21", 0]
]}
